Tested on: Saccharomyces cerevisiae BY4741 SeMeCo community
Experiment: z-score of subpopulation abundance vs DMSO median, subpopulation auxotrophic for H; higher = larger share of this subpopulation than in DMSO controls
Settings: 10 µM; 24 h; SM minimal medium; subpopulation (auxotrophy): H
Where a name gives a salt, the structure may show the parent alone.
endpointName: z-score of subpopulation abundance
Numbers only.

- compound: "C1N2CN3CN1CN(C2)C3 [Methenamine]"
  readoutNumber: 0.28

The following compounds each have a reported value; give each one's z-score of subpopulation abundance.
1. COc1ccc(C2CNC(=O)C2)cc1OC1CCCC1 (centres undefined) [Rolipram]
2. O=C(O)CCc1nc(-c2ccccc2)c(-c2ccccc2)o1 [Oxaprozin]
3. CCN(CC)C(=O)C1(c2ccccc2)CC1CN (centres undefined) [Milnacipran HCl]
4. CC(C)C(=O)c1c(C(C)C)nn2ccccc12 [Ibudilast]
5. CC1(C)S[C@@H]2[C@H](NC(=O)[C@H](N)c3ccc(O)cc3)C(=O)N2[C@H]1C(=O)O [Amoxicillin]
6. OCCN(CCO)c1nc(N2CCCCC2)c2nc(N(CCO)CCO)nc(N3CCCCC3)c2n1 [Dipyridamole]

Reply text:
1: -0.68; 2: -0.36; 3: -1.04; 4: -1.02; 5: 0.05; 6: 3.18

The following compounds each have a reported value; give each one's z-score of subpopulation abundance.
1. CCCC1CC(C(=O)NC(C(C)Cl)C2OC(SC)C(O)C(O)C2O)N(C)C1 (centres undefined) [Clindamycin alcoholate]
2. CO[C@H]1C[C@@H]2CC[C@@H](C)[C@@](O)(O2)C(=O)C(=O)N2CCCC[C@H]2C(=O)O[C@H]([C@H](C)C[C@@H]2CC[C@@H](OP(C)(C)=O)[C@H](OC)C2)CC(=O)[C@H](C)/C=C(\C)[C@@H](O)[C@@H](OC)C(=O)[C@H](C)C[C@H](C)/C=C/C=C/C=C/1C [Ridaforolimus (Deforolimus, MK-8669)]

Reply text:
1. 0.65
2. 15.9

###

I'd appreciate it if you could supply z-score of subpopulation abundance values for the items below.
System: Saccharomyces cerevisiae BY4741 SeMeCo community
Assay: z-score of subpopulation abundance vs DMSO median, subpopulation auxotrophic for LM; higher = larger share of this subpopulation than in DMSO controls
Details: 10 µM; 24 h; SM minimal medium; subpopulation (auxotrophy): LM
One number for each entry.

Completed entries (count: 2):
- compound: "Cc1cc(=O)n(-c2ccccc2)n1C [Antipyrine]"
  testTarget: "Saccharomyces cerevisiae BY4741 SeMeCo community"
  z-score of subpopulation abundance: -0.72
- compound: "Cc1c(Cl)cccc1Nc1ccccc1C(=O)O"
  testTarget: "Saccharomyces cerevisiae BY4741 SeMeCo community"
  z-score of subpopulation abundance: -1.47

Let's switch to this compound now.
Inquiry: For the compound O=c1ccn(C2CC(O)C(CO)O2)c(=O)[nH]1 (stereo not drawn) , what z-score of subpopulation abundance is on record?
Reply text: 0.89

###

I'd appreciate it if you could supply z-score of subpopulation abundance values for the items below.
Tested on: Saccharomyces cerevisiae BY4741 SeMeCo community
Assay: z-score of subpopulation abundance vs DMSO median, subpopulation auxotrophic for UM; higher = larger share of this subpopulation than in DMSO controls
Conditions: 10 µM; 24 h; SM minimal medium; subpopulation (auxotrophy): UM
Counter-ions that a name gives are not always drawn.
Numbers only.

- compound: "Nc1nc2[nH]cc(CCc3ccc(C(=O)N[C@@H](CCC(=O)O)C(=O)O)cc3)c2c(=O)[nH]1 [Pemetrexed Disodium Hydrate]"
  testTarget: "Saccharomyces cerevisiae BY4741 SeMeCo community"
  endpointName: "z-score of subpopulation abundance"
  readoutNumber: -7.6
- compound: "CCNC(=O)[C@@H]1CCCN1C(=O)[C@H](CCCNC(=N)N)NC(=O)[C@H](CC(C)C)NC(=O)[C@@H](CC(C)C)NC(=O)[C@H](Cc1ccc(O)cc1)NC(=O)[C@H](CO)NC(=O)[C@H](Cc1c[nH]c2ccccc12)NC(=O)[C@H](Cc1c[nH]cn1)NC(=O)[C@@H]1CCC(=O)N1 [Leuprolide Acetate]"
  testTarget: "Saccharomyces cerevisiae BY4741 SeMeCo community"
  endpointName: "z-score of subpopulation abundance"
  readoutNumber: 0.23
- compound: "O=C(O)c1cccnc1Nc1cccc(C(F)(F)F)c1"
  testTarget: "Saccharomyces cerevisiae BY4741 SeMeCo community"
  endpointName: "z-score of subpopulation abundance"
  readoutNumber: -0.28
- compound: "C=C[C@]1(C)C[C@@H](OC(=O)CSC(C)(C)CNC(=O)[C@H](N)C(C)C)[C@]2(C)[C@H](C)CC[C@]3(CCC(=O)[C@H]32)[C@@H](C)[C@@H]1O [Valnemulin HCl]"
  testTarget: "Saccharomyces cerevisiae BY4741 SeMeCo community"
  endpointName: "z-score of subpopulation abundance"
  readoutNumber: 0.26
- compound: "CCOC(=O)C1=C(C)NC(C)=C(C(=O)OCC)C1c1ccccc1/C=C/C(=O)OC(C)(C)C"
  testTarget: "Saccharomyces cerevisiae BY4741 SeMeCo community"
  endpointName: "z-score of subpopulation abundance"
  readoutNumber: -2.61

Let's switch to this compound now.
Inquiry: For the compound CN1CCN(CCCN2c3ccccc3Sc3ccc(Cl)cc32)CC1 [Prochlorperazine dimaleate salt] , what z-score of subpopulation abundance is on record?
Reply text: 0.65

###

Tested on: Saccharomyces cerevisiae BY4741 SeMeCo community
Test: z-score of subpopulation abundance vs DMSO median, subpopulation auxotrophic for L; higher = larger share of this subpopulation than in DMSO controls
Conditions: 10 µM; 24 h; SM minimal medium; subpopulation (auxotrophy): L
Counter-ions that a name gives are not always drawn.
I'd appreciate it if you could supply z-score of subpopulation abundance values for the items below.
Numbers only.

- compound: "O=C1CN(/N=C/c2ccc(-c3ccc([N+](=O)[O-])cc3)o2)C(=O)N1 [Dantrolene sodium]"
  readoutNumber: 2.03
- compound: "CC[C@@H]1/C=C(\\C)C[C@H](C)C[C@H](OC)[C@H]2O[C@@](O)(C(=O)C(=O)N3CCCC[C@H]3C(=O)O[C@H](/C(C)=C/[C@@H]3CC[C@H](Cl)[C@H](OC)C3)[C@H](C)[C@@H](O)CC1=O)[C@H](C)C[C@@H]2OC [Pimecrolimus]"
  readoutNumber: 3.91
- compound: "CC(C)[C@H](N)C(=O)OCC(CO)OCn1cnc2c(=O)[nH]c(N)nc21 (stereo partly drawn) [Valganciclovir HCl]"
  readoutNumber: 0.28
- compound: "COc1ccc(C(=O)NCc2ccc(OCCN(C)C)cc2)cc1OC [Itopride hydrochloride]"
  readoutNumber: 0
- compound: "COc1cc(NC(C)CCCN)c2ncccc2c1 (stereo not drawn) [Primaquine Diphosphate]"
  readoutNumber: -0.56
- compound: "CC/C(=C(/CC)c1ccc(O)cc1)c1ccc(O)cc1 [Diethylstilbestrol]"
  readoutNumber: -0.38
- compound: "CN1CCN(C2=Nc3cc(Cl)ccc3Nc3ccccc32)CC1 [Clozapine]"
  readoutNumber: -0.41
- compound: "Cc1cc(NS(=O)(=O)c2ccc(N)cc2)no1 [Sulfamethoxazole sodium]"
  readoutNumber: -0.95
- compound: "CC(C)COc1ccc(CNC(=O)N(Cc2ccc(F)cc2)C2CCN(C)CC2)cc1 [Pimavanserin]"
  readoutNumber: -1.18
- compound: "CC1(C)S[C@@H]2[C@H](NC(=O)[C@H](N)c3ccccc3)C(=O)N2[C@H]1C(=O)OCOC(=O)[C@@H]1N2C(=O)C[C@H]2S(=O)(=O)C1(C)C [Sultamicillin Tosylate]"
  readoutNumber: -0.36

The following compounds each have a reported value; give each one's z-score of subpopulation abundance.
1. O=C(O)c1cn(C2CC2)c2cc(N3CCNCC3)c(F)cc2c1=O [Ciprofloxacin hydrochloride hydrate]
2. Cc1nccn1CC1CCc2c(c3ccccc3n2C)C1=O (stereo not drawn) [Ondansetron Hydrochloride Dihydrate]

Reply text:
1. -0.22
2. -0.38

###

I'd appreciate it if you could supply z-score of subpopulation abundance values for the items below.
System: Saccharomyces cerevisiae BY4741 SeMeCo community
Assay: z-score of subpopulation abundance vs DMSO median, subpopulation auxotrophic for HLU; higher = larger share of this subpopulation than in DMSO controls
Conditions: 10 µM; 24 h; SM minimal medium; subpopulation (auxotrophy): HLU
Counter-ions that a name gives are not always drawn.

Completed entries (count: 5):
- molecule: "O=C(O)CCC(=O)Nc1ccc(S(=O)(=O)Nc2nccs2)cc1"
  z-score of subpopulation abundance: -0.43
- molecule: "C[C@@H](O)[C@H]1C(=O)N2C(C(=O)O)=C(S[C@@H]3CN[C@H](C(=O)N(C)C)C3)[C@H](C)[C@H]12 [Meropenem Trihydrate]"
  z-score of subpopulation abundance: 0.91
- molecule: "CN(C)CCc1c[nH]c2ccc(Cn3cncn3)cc12 [Rizatriptan Benzoate]"
  z-score of subpopulation abundance: 0.78
- molecule: "Nc1ccc(S(N)(=O)=O)cc1 [Sulfanilamide]"
  z-score of subpopulation abundance: -1.52
- molecule: "CCC[C@@H]1C[C@@H](C(=O)N[C@@H]([C@H]2O[C@H](SC)[C@H](O)[C@@H](O)[C@H]2O)[C@@H](C)O)N(C)C1 [Lincomycin HCl]"
  z-score of subpopulation abundance: -0.34

The following molecules each have a reported value; give each one's z-score of subpopulation abundance.
1. N/C(=N\N=C\c1ccc(Cl)cc1)N/N=C/c1ccc(Cl)cc1 [Robenidine Hydrochoride]
2. O=C(O)Cc1ccccc1Nc1c(Cl)cccc1Cl
3. O=C1CN(/N=C/c2ccc(-c3ccc([N+](=O)[O-])cc3)o2)C(=O)N1 [Dantrolene sodium hemiheptahydrate]
4. Oc1c(Br)cc(Br)c2cccnc12
5. Cc1cccc(C)c1OCC(C)N (stereo unspecified) [Mexiletine HCl]
6. Nc1nc(=O)[nH]cc1F

Reply text:
1: 0.81; 2: 0.15; 3: -1.02; 4: 27.1; 5: -0.19; 6: 1.33
